assay explanation: recombinant barcode read abundance after kanamycin selection (control-corrected) (log10(CPM+1)); higher = more efficient recombination; sequences stand for … in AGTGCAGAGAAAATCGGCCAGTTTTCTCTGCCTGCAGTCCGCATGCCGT…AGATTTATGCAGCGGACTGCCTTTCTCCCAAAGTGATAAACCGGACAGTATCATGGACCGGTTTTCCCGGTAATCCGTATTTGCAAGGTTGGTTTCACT; site = the 11-nt target;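 note: IS621 recombinase and bridge RNA in Escherichia coli cells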
Okay, here is how we bin by recombinant barcode read abundance (log10): LOW: < 0.07; MEDIUM: ≥ 0.07 and < 2; HIGH: ≥ 2

>>> class_label("TCCGCTTCTTGGGTTCTAACCTGTTGCTT (site AATCGAGCTCC)")
"LOW"
>>> class_label("GGACGGGCTTGGGTTCTAACCTGTTGCAG (site GGACGGGCTCT)")
"HIGH"

Below: the item to evaluate.
Prompt: Lab note: which band did GACACACCTTGGGTTCTAACCTGTTGCAT (site GTCACGCCTAT) land in?
Completion: LOW

###

assay explanation: recombinant barcode read abundance after kanamycin selection (control-corrected) (log10(CPM+1)); higher = more efficient recombination; sequences stand for … in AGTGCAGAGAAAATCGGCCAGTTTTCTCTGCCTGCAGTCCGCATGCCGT…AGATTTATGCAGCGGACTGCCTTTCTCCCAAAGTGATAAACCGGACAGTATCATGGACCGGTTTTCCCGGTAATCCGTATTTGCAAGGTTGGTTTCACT; site = the 11-nt target
recombinant barcode read abundance (log10) listing for selected sequences.
Please give the numeric answer without any surrounding text.

# annotated cases, reported recombinant barcode read abundance (log10) shown
>>> obs_value("CACTTCCCTTGGGTTCTAACCTGTTGCTT (site CACTTCCCTAG)")
0.442
>>> obs_value("ATGTACACTTGGGTTCTAACCTGTTGCCT (site ATGTACACTAG)")
1.55
>>> obs_value("TAGGATACTTGGGTTCTAACCTGTTGCGT (site TAGGACACTAC)")
0.928
>>> obs_value("TAGGCTACTTGGGTTCTAACCTGTTGCAC (site TAGGCTACTTT)")
0.00761
>>> obs_value("GGCTCTACTTGGGTTCTAACCTGTTGCGG (site GGCTAGACTCC)")
0.0656
>>> obs_value("TGCTTACCTTGGGTTCTAACCTGTTGCCT (site CGCTTACCTAG)")
0.332
>>> obs_value("TAGTAGTCTTGGGTTCTAACCTGTTGCCT (site TAGTAGTCTAA)")
0.0538
>>> obs_value("ATGCGGTCTTGGGTTCTAACCTGTTGCCT (site ATGCGGTCTAG)")
2.02
>>> obs_value("GGGCAACCTTGGGTTCTAACCTGTTGCGT (site GGGCAACCTAC)")
2.84
>>> obs_value("AGCAACACTTGGGTTCTAACCTGTTGCAG (site AGCAACACTCT)")
0.467

Prompt: So what does the record say about recombinant barcode read abundance (log10) for GTCGTCCCTTGGGTTCTAACCTGTTGCCT (site GTCGTCTCTAG) ?
Completion: 0.0914

Prompt: So what's the measured recombinant barcode read abundance (log10) for this one? TCGGATACTTGGGTTCTAACCTGTTGCAT (site TCGGATACTAC)
Completion: 0.0629

Prompt: May I ask what recombinant barcode read abundance (log10) has been recorded for TCCTAAGCTTGGGTTCTAACCTGTTGCTA (site TCCGAAGCTTA) ?
Completion: 0.372

Prompt: Please look up its recombinant barcode read abundance (log10): CAGCGAGCTTGGGTTCTAACCTGTTGCCG (site CATCGAGCTCG)
Completion: 0.0483

Prompt: For the sequence ACGGACCCTTGGGTTCTAACCTGTTGCAT (site ACGAACCCTAG) , what recombinant barcode read abundance (log10) is on record?
Completion: 0.225

Prompt: Which recombinant barcode read abundance (log10) is reported for this sequence? ATCTATCCTTGGGTTCTAACCTGTTGCAT (site ACCTAACCTAT)
Completion: 0.179

Prompt: Which recombinant barcode read abundance (log10) reading was recorded for the sequence CTAAATCCTTGGGTTCTAACCTGTTGCCT (site CTAAATCCTAG) ?
Completion: 0.303

Prompt: Need recombinant barcode read abundance (log10), item GCCATCTCTTGGGTTCTAACCTGTTGCCT (site GCCATCTCTAG)
Completion: 0.0476

Prompt: Need recombinant barcode read abundance (log10) of CTAGGTACTTGGGTTCTAACCTGTTGCTT (site CTAGGTACTAA) , thanks.
Completion: 0.0303

Prompt: Item TTCATACCTTGGGTTCTAACCTGTTGCTT (site GTCTTACCTAA) has what recorded recombinant barcode read abundance (log10)?
Completion: 0.0129

Prompt: Give its recombinant barcode read abundance (log10) value. Item: CAGCCGTCTTGGGTTCTAACCTGTTGCGG (site CAATCGTCTCC)
Completion: 0.0473
